Target: RAC-alpha serine/threonine-protein kinase (Homo sapiens) (UniProt P31749)
Test: HTS Assay for Inhibitors of Akt Phophorylation: Primary Screen; as to activity change: % is scaled to controls: 0 for no effect and ±100 for the full control effect
Conditions: Neuro2A IGF-stimulated pAkt S473 HTRF, 20 min; at 50 µM, active compounds read low
Hit rate of the full screen: of about 360,000 compounds, about 1,100 (0.31%) were called active. The list comes from a sample in which actives are over-represented; it also holds close analogues and randomly drawn compounds.
Assay Readout: activity change

Recorded activity change, per entry:
| Structure String | activity change |
| --- | --- |
| Cc1cc(C)cc(NS(=O)(=O)c2ccc(Oc3ncc(C(F)(F)F)cc3Cl)cc2)c1 | -13.6% (inactive) |
| CSc1ccccc1-c1nnc(-c2ccc(Cl)cc2)o1 | -0.409% (inactive) |
| COc1ccc(C(=O)NC2CCN(C(=O)Nc3ccc(F)cc3)CC2)cc1 | inactive |
| CCOC(=O)C1CCN(C(=O)C2CCN(S(=O)(=O)c3c(C)noc3C)CC2)CC1 | inactive |
| CCc1ccccc1N(CC(=O)NCCSCc1ccco1)S(C)(=O)=O | inactive |

// next item, activity change requested
### Prompt // fetch RAC-alpha serine/threonine-protein kinase (Homo sapiens) (UniProt P31749) activity change for CCOC(=O)CN(C(=O)CN1CCOCC1)c1ccc(Br)cc1
### Response 1.02% (inactive)

---

Target: RAC-alpha serine/threonine-protein kinase (Homo sapiens)
Assay: HTS Assay for Inhibitors of Akt Phophorylation: Primary Screen; as to activity change: % is scaled to controls: 0 for no effect and ±100 for the full control effect
Details: Neuro2A IGF-stimulated pAkt S473 HTRF, 20 min; at 50 µM
Hit rate of the full screen: of about 360,000 compounds, about 1,100 (0.31%) were called active. Rule as the data show it: active = activity change below about -80%; inconclusive = mostly about -51% to -80%; inactive = weaker than that. Shown is part of a subset that was picked to be rich in actives.
Write down the outcome that applies. Available outcomes: active, inactive

| Molecule | Category Label |
| --- | --- |
| Cc1cccc(C2C3=C(CCCC3=O)N=C3c4ccccc4C(=O)C32)c1 (stereo not drawn) | inactive |
| COc1cccc(N(C(=O)CNC(=O)c2ccco2)C(C(=O)NC2CCCCC2)c2cccnc2)c1 (stereo not drawn) | inactive |
| Cc1ccc(N(C(=O)CNC(=O)c2ccco2)C(C(=O)NC2CCCC2)c2ccncc2)cc1 (stereo not drawn) | inactive |
| Cc1ccc(S(=O)(=O)N(CC(=O)N2CCc3ccccc3C2)c2cccc(Cl)c2)cc1 | inactive |
| Brc1ccc(-c2csc(N/N=C/c3cccnc3)n2)cc1 | inactive |

### Prompt Assay result, entry CCN(CC)CCCN=C(N)N — outcome?
### Response inactive

### Prompt Write down the call the test reported for this molecule. Item: NNC(=O)CSc1nnc(-c2ccccc2)n1-c1ccccc1
### Response inactive

### Prompt What did the test return for Cc1cc(=O)n2nc(N3CCC(C(=O)Nc4c(F)c(F)c(F)c(F)c4F)CC3)sc2n1 ?
### Response inactive

### Prompt What was the test verdict on c1ccc(Nc2nc(-c3ccncc3)cs2)nc1 ?
### Response active

### Prompt Any idea what this test logged for CCC(C)CN1C(=O)CN(S(C)(=O)=O)CC1(C)C(=O)Nc1ccc2c(c1)OCCO2 (stereo not drawn) ?
### Response inactive

### Prompt Outcome? COc1ccc(C)cc1NC(=O)CCS(=O)(=O)c1cccc2nonc12
### Response inactive

### Prompt Please state the recorded outcome for this molecule: CSCCC(C(=O)NC(C)(C)C)n1c(-c2ccccc2)nc2ccccc21 (stereo not drawn)
### Response inactive

### Prompt Lab log entry: CCOc1ccc(N(CC(=O)OC)S(=O)(=O)c2c(C)noc2C)cc1 — outcome as called in the assay?
### Response inactive

### Prompt Given Cc1noc(C)c1S(=O)(=O)N(CC(=O)NCc1ccc(Cl)cc1)c1ccc2c(c1)OCO2 , state the outcome it received in this test.
### Response inactive

### Prompt Write down the call the test reported for this molecule. Item: CN(c1ccc(C(=O)N2CCc3ccccc3C2)cc1)S(C)(=O)=O
### Response active

### Prompt Called result for CC1CCCCC1NC(=O)CCS(=O)(=O)c1cccc2nonc12 (stereo not drawn)
### Response active
